system: HCV Replicon 2A; assay: HCV Replicon 2A EC50 (Example Q); type: cell-based; details: Hepatitis C virus, 72 h; HCV replicon cells, 3 days, Dual-Glo luciferase; read-out: HCV Replicon 2A EC50 (nM) (per Ex. Q)
// assign Condition met if EC50 falls strictly below 20000 nM, else Condition not met (ties count as Condition not met)

* CCCCCCCCCCCCCCCC[C@H](COP(=O)(O)OC[C@@]1(C#N)O[C@@H](c2ccc3c(N)ncnn23)[C@H](O)[C@@H]1O)OCc1cc(F)cc(C#N)c1 | Condition met
* CCCCCCCCCCCCCCCCCC[C@@H](COP(=O)(O)OC[C@@]1(C#N)O[C@@H](c2ccc3c(N)ncnn23)[C@H](O)[C@@H]1O)OCc1cc(F)cc(C#N)c1 | Condition not met
* CCCCCCCCCCCCCCCCCCOC[C@H](COP(=O)(O)OC[C@@]1(C#N)O[C@@H](c2ccc3c(N)ncnn23)[C@H](O)[C@@H]1O)OCc1ccc(C#N)c(Cl)c1 | Condition not met
* CCCCCCCCCCCCCCCCCCOC[C@H](COP(=O)(O)OC[C@@]1(C#N)O[C@@H](c2ccc3c(N)ncnn23)[C@H](O)[C@@H]1O)Oc1cccc(C#N)n1 | Condition met

Now consider the entry below.
Prompt: Item CCCCCCCCCCCCCCCCCOC[C@H](COP(=O)(O)OC[C@@]1(C#N)O[C@@H](c2ccc3c(N)ncnn23)[C@H](O)[C@@H]1O)OCc1cc(F)cc(C#N)c1 : EC50 beneath 20000 nM, strictly?
Completion: Condition met

###

assay: RSV NHBE CC50 384 V2 (per Ex. U); type: cell-based; conditions: human; NHBE cells, 384-well; read-out: RSV NHBE CC50 384 V2 (nM) (per Ex. U)
OBSERVABLE: CC50 at 3 days (nM)
The answer is to be given in nM; state only the numeric part.

Prompt: Give a short answer stating reported CC50 at 3 days for CCCCCCCCCCCCC[C@@H](COP(=O)(O)OC[C@@]1(C#N)O[C@@H](c2ccc3c(N)ncnn23)[C@H](O)[C@@H]1O)OCc1cc(F)cc(C#N)c1 [Compound 97] .
Completion: 3910

###

assay: in vitro; type: cell-based; settings: human
Reported CC50 is given for each of the following compounds.
The answer is to be given in µM; state only the numeric part.

• CCCCCCCCCCCCCCCCCC[C@@H](COP(=O)(O)OC[C@@]1(C#N)O[C@@H](c2ccc3c(N)ncnn23)[C@H](O)[C@@H]1O)OCc1cc(F)cc(C#N)c1 = 16

Prompt: Give a short answer stating reported CC50 for CCCCCCCCCCCCCCCCCCOC[C@@H](COP(=O)(O)OC[C@@]1(C#N)O[C@@H](c2ccc3c(N)ncnn23)[C@H](O)[C@@H]1O)Oc1ccc(C#N)nc1 .
Completion: 17

Prompt: Give a short answer stating reported CC50 for CCCCCCCCCCCCCCCCCCC[C@H](COP(=O)(O)OC[C@@]1(C#N)O[C@@H](c2ccc3c(N)ncnn23)[C@H](O)[C@@H]1O)OCc1cc(F)cc(C#N)c1 .
Completion: 13

Prompt: Give a short answer stating reported CC50 for CCCCCCCCCCCCCCCCCCC[C@H](COP(=O)(O)OC[C@@]1(C#N)O[C@@H](c2ccc3c(N)ncnn23)[C@H](O)[C@@H]1O)OCc1ccc(C#N)c(OC(C)C)c1 .
Completion: 19

This collection of values is drawn from patent US20250034182A1.
